Cited source: paper PMC12209991

Assay: Multiple ascending dose (MAD) pharmacokinetics in healthy volunteers, BID for 14 days
Assay type: in vivo, human
Details: human, plasma, oral, 500 mg, 500 mg BID, Day 14, plasma; read-out: Cmax, geometric mean (Geo CV%)
assay_metric: Cmax (µg/mL)
The reply should be a number in µg/mL, with the unit left off.

Req: Which value of Cmax has been reported for CC(=O)N1CCC(COc2cc(F)c3c(=O)[nH]c(CSC4CCOCC4)nc3c2)CC1 [RBN‐3143] in the records?
Resp: 1.83

----------
Assay: Multiple ascending dose (MAD) pharmacokinetics in healthy volunteers, BID for 14 days
Assay type: in vivo, human
Details: human, plasma, oral, 150 mg, 150 mg BID, Day 14, plasma; read-out: AUC12, geometric mean (Geo CV%)
assay_metric: AUC (ng·h/mL)
The reply should be a number in ng·h/mL, with the unit left off.

Req: Which value of AUC has been reported for CC(=O)N1CCC(COc2cc(F)c3c(=O)[nH]c(CSC4CCOCC4)nc3c2)CC1 in the records?
Resp: 5570
